Molecular target: T1, CD16A V158 (human, UniProt P08637 17-208, limits assumed)
T1 construct: construct not described
T1 sequence (P08637 17-208 F176V limits assumed): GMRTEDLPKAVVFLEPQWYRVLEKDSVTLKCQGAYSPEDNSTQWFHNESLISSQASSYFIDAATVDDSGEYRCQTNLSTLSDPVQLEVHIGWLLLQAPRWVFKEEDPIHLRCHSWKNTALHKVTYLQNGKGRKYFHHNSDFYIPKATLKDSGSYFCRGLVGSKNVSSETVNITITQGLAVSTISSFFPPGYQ
Assay: method not stated at Table 3
Label scheme for binding relative to wild-type Fc: lower than 2 fold is false, 2 fold and above is true.

Prompt line: Dear colleague, could you confirm whether Fc variant F243L R255L D270E P396L (other, UniProt P01857-1 104-330, looked up, domain: Fc) DKTHTCPPCPAPELLGGPSVFLLPPKPKDTLMISLTPEVTCVVVDVSHEEPEVKFNWYVDGVEVHNAKTKPREEQYNSTYRVVSVLTVLHQDWLNGKEYKCKVSNKALPAPIEKTISKAKGQPREPQVYTLPPSRDELTKNQVSLTCLVKGFYPSDIAVEWESNGQPENNYKTTPLVLDSDGSFFLYSKLTVDKSRWQQGNVFSCSVMHEALHNHYTQKSLSLSPGK has binding relative to wild-type Fc at or above 2 fold?
Response line: false

Prompt line: Dear colleague, could you confirm whether Fc variant D270E K392T P396L (other, UniProt P01857-1 104-330, looked up, domain: Fc) DKTHTCPPCPAPELLGGPSVFLFPPKPKDTLMISRTPEVTCVVVDVSHEEPEVKFNWYVDGVEVHNAKTKPREEQYNSTYRVVSVLTVLHQDWLNGKEYKCKVSNKALPAPIEKTISKAKGQPREPQVYTLPPSRDELTKNQVSLTCLVKGFYPSDIAVEWESNGQPENNYTTTPLVLDSDGSFFLYSKLTVDKSRWQQGNVFSCSVMHEALHNHYTQKSLSLSPGK has binding relative to wild-type Fc at or above 2 fold?
Response line: false

Prompt line: Dear colleague, could you confirm whether Fc variant F243L D270E K392T P396L (other, UniProt P01857-1 104-330, looked up, domain: Fc) DKTHTCPPCPAPELLGGPSVFLLPPKPKDTLMISRTPEVTCVVVDVSHEEPEVKFNWYVDGVEVHNAKTKPREEQYNSTYRVVSVLTVLHQDWLNGKEYKCKVSNKALPAPIEKTISKAKGQPREPQVYTLPPSRDELTKNQVSLTCLVKGFYPSDIAVEWESNGQPENNYTTTPLVLDSDGSFFLYSKLTVDKSRWQQGNVFSCSVMHEALHNHYTQKSLSLSPGK has binding relative to wild-type Fc at or above 2 fold?
Response line: true

Prompt line: Dear colleague, could you confirm whether Fc mutant 16: F243L R292P Y300L P396L (other, UniProt P01857-1 104-330, looked up, domain: Fc) DKTHTCPPCPAPELLGGPSVFLLPPKPKDTLMISRTPEVTCVVVDVSHEDPEVKFNWYVDGVEVHNAKTKPPEEQYNSTLRVVSVLTVLHQDWLNGKEYKCKVSNKALPAPIEKTISKAKGQPREPQVYTLPPSRDELTKNQVSLTCLVKGFYPSDIAVEWESNGQPENNYKTTPLVLDSDGSFFLYSKLTVDKSRWQQGNVFSCSVMHEALHNHYTQKSLSLSPGK has binding relative to wild-type Fc at or above 2 fold?
Response line: true

Prompt line: Dear colleague, could you confirm whether Fc variant R255L D270E Y300L P396L (other, UniProt P01857-1 104-330, looked up, domain: Fc) DKTHTCPPCPAPELLGGPSVFLFPPKPKDTLMISLTPEVTCVVVDVSHEEPEVKFNWYVDGVEVHNAKTKPREEQYNSTLRVVSVLTVLHQDWLNGKEYKCKVSNKALPAPIEKTISKAKGQPREPQVYTLPPSRDELTKNQVSLTCLVKGFYPSDIAVEWESNGQPENNYKTTPLVLDSDGSFFLYSKLTVDKSRWQQGNVFSCSVMHEALHNHYTQKSLSLSPGK has binding relative to wild-type Fc at or above 2 fold?
Response line: false
